- Test System: Parkinson's disease protein 7 (PARK7/DJ1) (human)
- Assay Text: primary screen, percent inhibition; higher = more effect of the substance
- Stated Conditions: 100 µM
The whole screen tested about 7,900 compounds, of which about 400 (5.1%) showed an effect of 50% or more. This excerpt belongs to a sample that is enriched for strong results.
Listing of recorded Inhibition % by entry.
Quantity Name: Inhibition % (%)

# Molecule, Test System, Quantity Name, Readout Units, Recorded Value
data = [
    ("CS(=O)(=O)c1cccnc1C#N", "Parkinson's disease protein 7 (PARK7/DJ1) (human)", "Inhibition %", "%", 5.26),
    ("O=C(Nc1cccc(S(=O)(=O)F)c1)C1(CF)CCC1", "Parkinson's disease protein 7 (PARK7/DJ1) (human)", "Inhibition %", "%", 95.8),
    ("N#Cc1ncn(CC(=O)N(C2=CCCCC2)C2CC2)n1", "Parkinson's disease protein 7 (PARK7/DJ1) (human)", "Inhibition %", "%", 29.4),
    ("Cc1csc(C(C#N)=Cc2cnn(C)c2)n1", "Parkinson's disease protein 7 (PARK7/DJ1) (human)", "Inhibition %", "%", 11.9),
    ("N#Cc1ccc(N2CCOC(c3cccs3)C2)cn1 (stereo not drawn)", "Parkinson's disease protein 7 (PARK7/DJ1) (human)", "Inhibition %", "%", 4.98),
    ("COc1cccc(CN(C)C(=O)CCl)c1OC", "Parkinson's disease protein 7 (PARK7/DJ1) (human)", "Inhibition %", "%", 74.5),
    ("CC1(C(=O)Nc2cccc(S(=O)(=O)F)c2)CCCC1", "Parkinson's disease protein 7 (PARK7/DJ1) (human)", "Inhibition %", "%", 97.7),
    ("CC1(C)[C@@H](Nc2cnc(C#N)cn2)[C@@H]1c1ccccc1 (racemic)", "Parkinson's disease protein 7 (PARK7/DJ1) (human)", "Inhibition %", "%", 10.2),
    ("CN1CCN(c2cccc(C#N)n2)CC1", "Parkinson's disease protein 7 (PARK7/DJ1) (human)", "Inhibition %", "%", 5.08),
    ("Cc1n[nH]c(S)nc1=O", "Parkinson's disease protein 7 (PARK7/DJ1) (human)", "Inhibition %", "%", 2.15),
    ("COc1ccccc1CN(C)C(=O)CCl", "Parkinson's disease protein 7 (PARK7/DJ1) (human)", "Inhibition %", "%", 98.6),
    ("CN(Cc1ccc(N(C)C)cc1)C(=O)CCl.Cl", "Parkinson's disease protein 7 (PARK7/DJ1) (human)", "Inhibition %", "%", 71.3),
    ("CC(NC(=O)Oc1ccccc1)C(=O)O (stereo not drawn)", "Parkinson's disease protein 7 (PARK7/DJ1) (human)", "Inhibition %", "%", 10.1),
    ("CN(Cc1ccsc1)C(=O)CCl", "Parkinson's disease protein 7 (PARK7/DJ1) (human)", "Inhibition %", "%", 37.6),
    ("COc1ccccc1C(=O)Nc1cccc(S(=O)(=O)F)c1", "Parkinson's disease protein 7 (PARK7/DJ1) (human)", "Inhibition %", "%", 4.59),
    ("Cc1ccc(NC(=O)CCl)cc1Br", "Parkinson's disease protein 7 (PARK7/DJ1) (human)", "Inhibition %", "%", 75),
    ("Cc1cc(NC(=O)CCl)ccc1Br", "Parkinson's disease protein 7 (PARK7/DJ1) (human)", "Inhibition %", "%", 32.6),
    ("CN(Cc1ccc(Cl)cc1)C(=O)CCl", "Parkinson's disease protein 7 (PARK7/DJ1) (human)", "Inhibition %", "%", 48.5),
]

---

- Test System: Parkinson's disease protein 7 (PARK7/DJ1) (human, UniProt Q99497)
- Sequence (Q99497 whole entry, looked up): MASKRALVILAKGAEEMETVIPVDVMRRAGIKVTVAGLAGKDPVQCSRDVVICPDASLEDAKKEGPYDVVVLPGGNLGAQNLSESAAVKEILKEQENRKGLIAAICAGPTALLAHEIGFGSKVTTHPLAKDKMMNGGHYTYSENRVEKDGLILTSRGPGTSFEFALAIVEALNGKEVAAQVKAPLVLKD
- Assay Text: primary screen, percent inhibition; higher = more effect of the substance
- Stated Conditions: 100 µM
Among all 7,900 compounds or so, about 400 (5.1%) showed an effect of 50% or more. This is one part of a sample in which strong results are shown more often than they occur.
Quantity Name: Inhibition % (%)

# Molecular String, Recorded Value
data = [
    ("C=CC(=O)Nc1ccc(F)c(F)c1", 7.82),
    ("Cc1nc(C2CC2)nc(S)c1C#N", 2.7),
    ("O=C(O)c1cc(S(=O)(=O)F)cs1", 90),
    ("C=CC(=O)N1CCC[C@H]1C(=O)NC", 4.18),
    ("CCc1cccc(NC(=O)CCl)c1", 14.1),
    ("COC(=O)Nc1ccc(S(=O)(=O)F)cc1[N+](=O)[O-]", 101),
]

---

Property: Inhibition %; scope: individual compounds
- Test System: Parkinson's disease protein 7 (PARK7/DJ1) (human, UniProt Q99497)
- Assay Text: primary screen, percent inhibition; higher = more effect of the substance
- Stated Conditions: 100 µM
In all, about 7,900 compounds went through this assay and about 400 (5.1%) showed an effect of 50% or more. The sample as a whole holds a higher share of strong results than the screen did.

# Compound, Inhibition % [%]
data = [
    ("N#Cc1ccc(N2CCC3(CCOC3)C2)cn1 (centres unmarked)", -4.97),
    ("Cc1ccc(C=CS(=O)(=O)Nc2ccnn2C(C)C)cc1", 13),
    ("COc1ccc(C2CCCN2C(=O)n2ccnc2)cc1 (centres unmarked)", 6.77),
    ("CNC(=O)CNS(=O)(=O)C=Cc1ccc(Cl)cc1", 0.98),
    ("COc1ccc(C)cc1S(=O)(=O)Oc1ccccn1", 17),
    ("CN1CN=C(S)NC1", 3.57),
    ("Cc1ccn(S(=O)(=O)c2ccc(F)c(C)c2)n1", 6.8),
    ("O=C(O)CCNS(=O)(=O)C=Cc1ccccc1", 6.07),
    ("Cc1ccc(C=CS(=O)(=O)NCC(=O)O)cc1", 81.7),
    ("O=C(O)c1ccc(NS(=O)(=O)C=Cc2ccccc2)cc1", 6.88),
    ("C=CC(=O)Nc1ccc(OCC)c(CO)c1", 4.38),
]

---

- Test System: Parkinson's disease protein 7 (PARK7/DJ1) (human)
- Assay Text: primary screen, percent inhibition; read as competition with a fluorescent probe by fluorescence polarization; higher = more effect of the substance
- Stated Conditions: 100 µM
The campaign covered roughly 7,900 compounds. About 400 (5.1%) showed an effect of 50% or more. What follows is part of a selection rich in strong results, with near analogues and random picks from the rest.
Reported Inhibition % values follow for various compounds
Quantity Name: Inhibition % (%)

# Compound, Test System, Quantity Name, Recorded Value
rows = [
    ("Cn1nccc1[C@@H]1OCC[C@H]1CN1CC=C(B(O)O)CC1", "Parkinson's disease protein 7 (PARK7/DJ1) (human)", "Inhibition %", 44.8),
    ("O=S(=O)(F)CCc1ccccc1", "Parkinson's disease protein 7 (PARK7/DJ1) (human)", "Inhibition %", 4.21),
    ("O=C(CCl)Nc1cc(Cl)ccc1-n1cncn1", "Parkinson's disease protein 7 (PARK7/DJ1) (human)", "Inhibition %", 11),
    ("CCN(CC)CCn1c(S)nc2ccccc2c1=O", "Parkinson's disease protein 7 (PARK7/DJ1) (human)", "Inhibition %", 4.52),
    ("O=C(NCCS(=O)(=O)F)c1ccccc1", "Parkinson's disease protein 7 (PARK7/DJ1) (human)", "Inhibition %", 13.4),
    ("N#CC(=Cc1ccccc1)C(=O)O", "Parkinson's disease protein 7 (PARK7/DJ1) (human)", "Inhibition %", 0.493),
    ("CCCc1cc(NC(=O)CCl)n(-c2ccccc2)n1", "Parkinson's disease protein 7 (PARK7/DJ1) (human)", "Inhibition %", 31.6),
    ("Cc1cccc(C)c1NC(=O)Cn1cnc(C#N)n1", "Parkinson's disease protein 7 (PARK7/DJ1) (human)", "Inhibition %", 6.38),
    ("O=C(c1cccs1)N1CCCCC1CCS(=O)(=O)F (stereo not shown)", "Parkinson's disease protein 7 (PARK7/DJ1) (human)", "Inhibition %", 84.1),
    ("NC(=O)c1csc(C(=O)CCl)c1", "Parkinson's disease protein 7 (PARK7/DJ1) (human)", "Inhibition %", 101),
    ("CC(C)Cc1nc(C#N)c(NCc2ccncc2)o1", "Parkinson's disease protein 7 (PARK7/DJ1) (human)", "Inhibition %", 6.94),
    ("CN(C)CCn1c(S)nc2ccccc2c1=O", "Parkinson's disease protein 7 (PARK7/DJ1) (human)", "Inhibition %", 82.9),
    ("O=C(CCl)Nc1nncs1", "Parkinson's disease protein 7 (PARK7/DJ1) (human)", "Inhibition %", 4.4),
    ("Cc1ccsc1-c1nnc(NC(=O)CCl)o1", "Parkinson's disease protein 7 (PARK7/DJ1) (human)", "Inhibition %", 10.8),
    ("CN(CCN1C(=O)CCC1=O)Cc1nc2c(s1)CCCC2", "Parkinson's disease protein 7 (PARK7/DJ1) (human)", "Inhibition %", 9.47),
    ("O=C(c1ccccc1)N1CCC(CCl)C1 (stereo not shown)", "Parkinson's disease protein 7 (PARK7/DJ1) (human)", "Inhibition %", 2.86),
]
